Recorded cytotoxicity at 10 µM, one value per entry.
# Run Description: Toxicity liver stage against HepG2, at 10uM
# Type: cell-based
# Parameters: test concentration 10 uM, cell line HepG2-A16-CD81EGFP
# Cond: human, HepG2-A16-CD81EGFP cells; read-out: INHIBITION
Report the value in % with no unit label.

Molecule	Unit	cytotoxicity at 10 µM
O=C(O)c1csc(S(=O)(=O)N2CCCc3cccc(OC(F)F)c32)c1	%	-13.5
CCC(CC)(CN)NC(C)c1ccccc1 (stereo unspecified)	%	4.02
CC(c1ccco1)N(C)Cc1cc2cc3c(cc2[nH]c1=O)OCO3 (stereo unspecified)	%	2.59
Cc1nn(C)cc1-c1cc(C(F)(F)F)nn1CCC#N	%	3.65

**Query** I'd like to know its cytotoxicity at 10 µM. The molecule in question is c1ccc([C@@H]2CN(Cc3ccncc3)C[C@H]2c2cc[nH]n2)cc1
**Result** -0.189

**Query** I'd like to know its cytotoxicity at 10 µM. The molecule in question is COC(C)c1noc(CN2CCCNCC2)n1 (stereo unspecified)
**Result** 5.6

----------
# Run Description: Toxicity liver stage against HepG2, at 10uM
# Type: cell-based
# Parameters: test concentration 10 uM, cell line HepG2-A16-CD81EGFP
# Cond: human, HepG2-A16-CD81EGFP cells; read-out: INHIBITION
Observed Property: cytotoxicity at 10 µM (%)
Report the value in % with no unit label.

// below: answered compounds
Compound	Observed Property	Val
CC(C)n1ccnc1C1CCCN(c2cncc(N(C)C)n2)C1 (stereo not drawn)	cytotoxicity at 10 µM	10.1
Fc1ccc2[nH]c(CO[C@H]3CN(CC4CC4)C[C@H]3F)nc2c1	cytotoxicity at 10 µM	-2.74

Now turn to the next compound.
**Query** I'd like to know its cytotoxicity at 10 µM. The compound in question is CC(C)CCN1CCN(C(=O)c2c[nH]c(=O)[nH]2)CC1
**Result** -6.49

----------
# Run Description: Toxicity liver stage against HepG2, at 10uM
# Format: cell-based
# Parameters: test concentration 10 uM, cell line HepG2-A16-CD81EGFP
# Cond: human, HepG2-A16-CD81EGFP cells; read-out: INHIBITION
Recorded cytotoxicity at 10 µM, one value per entry.
Report the value in % with no unit label.

Compound	Val
CCOCC1CN(C(=O)CC2=CCCCC2)Cc2nnn(C)c21 (stereo not drawn)	-110
COc1cccc(C(=O)Nc2cc(CC(C)C)nn2C)c1	-9.42
Cc1cc(C)n(CCCN(C)C(=O)CN2CC3(CCNCC3)OC2=O)n1	5.25
Cc1cc(F)ccc1OC1(C(=O)O)CCN(Cc2nccn2C)CC1	0.334
CCc1ccc(OCC(=O)N2CCN(CC)CC2)cc1	6.15

**Query** I'd like to know its cytotoxicity at 10 µM. The compound in question is Cc1[nH]c2cc(C3CCN(C(=O)c4ccccn4)CC3)nn2c(=O)c1C
**Result** 0.636

**Query** I'd like to know its cytotoxicity at 10 µM. The compound in question is Cc1cc(C[C@@H]2COC[C@@H]2NC(=O)CN2CCOC2=O)on1
**Result** -0.6

**Query** I'd like to know its cytotoxicity at 10 µM. The compound in question is O=C(c1cccs1)N1CCC2(CC1)CCN(S(=O)(=O)C1CC1)CC2
**Result** -106
